Assay: in vitro
Details: mouse, NIH3T3 cells versus MCF7 cells
Description: Selectivity index, ratio of IC50 for mouse NIH3T3 cells to IC50 for human MCF7 cells incubated for 72 hrs by SRB assay
I'd appreciate it if you could supply selectivity ratio at 72 h values for the items below.
Numbers only.

Compound	Observed
C=C(c1ccc(C(=O)O)cc1)c1cc2c(cc1C)C(C)(C)CCC2(C)C [BEXAROTENE]	1.8

For every record below, what is its selectivity ratio at 72 h?
1. CCN(CC)c1ccc2c(-c3ccccc3C(=O)OCC(=O)[C@@]3(O)CC[C@H]4[C@@H]5CCC6=CC(=O)C=C[C@@]6(C)[C@H]5C(=O)C[C@@]43C)c3ccc(=[N+](CC)CC)cc-3oc2c1.[Cl-]
2. CCN(CC)c1ccc2c(-c3ccccc3C(=O)O[C@H]3CC[C@H]4[C@@H]5CCC6=CC(=O)CC[C@]6(C)[C@H]5CC[C@]34C)c3ccc(=[N+](CC)CC)cc-3oc2c1.[Cl-]

Solution:
1: 7.3; 2: 3.1

Exercise: State the recorded selectivity ratio at 72 h for this entry: CCN(CC)c1ccc2c(-c3ccccc3C(=O)O[C@H]3CC[C@@]4(C)C(=CC[C@@H]5[C@@H]4CC[C@]4(C)C(c6cccnc6)=CC[C@@H]54)C3)c3ccc(=[N+](CC)CC)cc-3oc2c1
Solution: 1.6

====

Test: in vitro
Settings: mouse, NIH3T3 cells versus A2780 cells
Description: Selectivity index, ratio of IC50 for mouse NIH3T3 cells to IC50 for human A2780 cells incubated for 72 hrs by SRB assay
I'd appreciate it if you could supply selectivity ratio at 72 h values for the items below.
Give bare numbers.

See these solved cases before continuing.
Compound	Measure name	Observed
CCN(CC)c1ccc2c(-c3ccccc3C(=O)N3CCNCC3)c3ccc(=[N+](CC)CC)cc-3oc2c1	selectivity ratio at 72 h	1.1
C=C(c1ccc(C(=O)O)cc1)c1cc2c(cc1C)C(C)(C)CCC2(C)C [BEXAROTENE]	selectivity ratio at 72 h	0.6
CCN(CC)c1ccc2c(-c3ccccc3C(=O)O[C@H]3CC[C@H]4[C@@H]5CCC6=CC(=O)CC[C@]6(C)[C@H]5CC[C@]34C)c3ccc(=[N+](CC)CC)cc-3oc2c1.[Cl-]	selectivity ratio at 72 h	2.2
CCN(CC)c1ccc2c(-c3ccccc3C(=O)OCC(=O)[C@@]3(O)CC[C@H]4[C@@H]5CCC6=CC(=O)C=C[C@@]6(C)[C@H]5C(=O)C[C@@]43C)c3ccc(=[N+](CC)CC)cc-3oc2c1.[Cl-]	selectivity ratio at 72 h	5.2

# next compound below
Exercise: State the recorded selectivity ratio at 72 h for this entry: CCN(CC)c1ccc2c(-c3ccccc3C(=O)O[C@H]3CC[C@@]4(C)C(=CC[C@@H]5[C@@H]4CC[C@]4(C)C(c6cccnc6)=CC[C@@H]54)C3)c3ccc(=[N+](CC)CC)cc-3oc2c1
Solution: 1.8

====

Test: Selectivity index, ratio of IC50 for mouse NIH3T3 cells to IC50 for human A375 cells incubated for 72 hrs by SRB assay
Format: toxicity
Conditions: NIH3T3 cells versus A375 cells, read-out: Ratio IC50
Measure name: selectivity ratio at 72 h
One number for each entry.

Entry smiles	selectivity ratio at 72 h
CCN(CC)c1ccc2c(-c3ccccc3C(=O)OCC(=O)[C@@]3(O)CC[C@H]4[C@@H]5CCC6=CC(=O)C=C[C@@]6(C)[C@H]5C(=O)C[C@@]43C)c3ccc(=[N+](CC)CC)cc-3oc2c1.[Cl-]	1.8
CCN(CC)c1ccc2c(-c3ccccc3C(=O)O[C@H]3CC[C@H]4[C@@H]5CCC6=CC(=O)CC[C@]6(C)[C@H]5CC[C@]34C)c3ccc(=[N+](CC)CC)cc-3oc2c1.[Cl-]	1.1
CCN(CC)c1ccc2c(-c3ccccc3C(=O)O[C@H]3CC[C@@]4(C)C(=CC[C@@H]5[C@@H]4CC[C@]4(C)C(c6cccnc6)=CC[C@@H]54)C3)c3ccc(=[N+](CC)CC)cc-3oc2c1	1.7

# next compound below
Exercise: State the recorded selectivity ratio at 72 h for this entry: C=C(c1ccc(C(=O)O)cc1)c1cc2c(cc1C)C(C)(C)CCC2(C)C
Solution: 0.7
